study target: full-length kinase/Nluc fusion proteins (Homo sapiens, UniProt Q9Y6R4)
Sequence (Q9Y6R4 whole entry, the tested form may be a part): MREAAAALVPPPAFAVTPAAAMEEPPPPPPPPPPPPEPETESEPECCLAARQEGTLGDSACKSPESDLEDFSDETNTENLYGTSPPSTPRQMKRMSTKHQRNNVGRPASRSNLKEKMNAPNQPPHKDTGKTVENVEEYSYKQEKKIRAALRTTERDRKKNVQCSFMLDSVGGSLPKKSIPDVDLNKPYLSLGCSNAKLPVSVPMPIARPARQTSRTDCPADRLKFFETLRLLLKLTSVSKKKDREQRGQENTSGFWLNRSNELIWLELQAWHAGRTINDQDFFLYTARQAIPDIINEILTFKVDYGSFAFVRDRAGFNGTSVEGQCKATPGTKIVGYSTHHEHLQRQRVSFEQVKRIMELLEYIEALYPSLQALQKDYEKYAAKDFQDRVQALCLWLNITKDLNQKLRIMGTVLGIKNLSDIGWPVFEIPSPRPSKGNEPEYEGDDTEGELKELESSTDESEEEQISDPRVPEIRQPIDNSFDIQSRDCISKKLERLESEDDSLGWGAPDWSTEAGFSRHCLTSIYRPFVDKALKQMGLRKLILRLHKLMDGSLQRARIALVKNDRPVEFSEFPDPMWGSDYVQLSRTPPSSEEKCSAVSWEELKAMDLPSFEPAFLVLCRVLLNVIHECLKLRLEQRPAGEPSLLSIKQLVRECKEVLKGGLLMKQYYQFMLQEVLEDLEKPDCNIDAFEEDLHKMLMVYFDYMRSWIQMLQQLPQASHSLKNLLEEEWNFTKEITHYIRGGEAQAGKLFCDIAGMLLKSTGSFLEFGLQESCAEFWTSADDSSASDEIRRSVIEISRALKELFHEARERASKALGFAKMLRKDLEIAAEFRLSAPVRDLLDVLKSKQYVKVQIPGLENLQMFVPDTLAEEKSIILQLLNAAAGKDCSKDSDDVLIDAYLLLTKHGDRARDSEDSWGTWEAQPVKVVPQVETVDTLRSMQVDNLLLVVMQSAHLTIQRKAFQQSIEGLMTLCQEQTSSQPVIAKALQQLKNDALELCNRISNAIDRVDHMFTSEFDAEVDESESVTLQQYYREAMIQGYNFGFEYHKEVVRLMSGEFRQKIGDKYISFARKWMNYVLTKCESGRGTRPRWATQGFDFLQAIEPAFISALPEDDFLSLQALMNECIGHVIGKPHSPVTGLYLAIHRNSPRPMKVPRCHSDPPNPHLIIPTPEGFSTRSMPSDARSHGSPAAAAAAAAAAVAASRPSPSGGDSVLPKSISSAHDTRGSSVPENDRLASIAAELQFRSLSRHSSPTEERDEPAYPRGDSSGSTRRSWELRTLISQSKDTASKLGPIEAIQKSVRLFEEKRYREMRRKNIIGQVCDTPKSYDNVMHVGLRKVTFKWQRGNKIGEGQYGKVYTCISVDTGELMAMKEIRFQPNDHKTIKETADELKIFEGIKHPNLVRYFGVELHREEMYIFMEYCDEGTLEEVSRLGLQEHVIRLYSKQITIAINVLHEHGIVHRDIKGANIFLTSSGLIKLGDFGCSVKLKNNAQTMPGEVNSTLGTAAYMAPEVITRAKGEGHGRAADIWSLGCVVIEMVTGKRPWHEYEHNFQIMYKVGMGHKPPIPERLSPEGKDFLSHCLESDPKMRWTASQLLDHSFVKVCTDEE
test: Apparent affinity (EC50) of energy transfer probes by titration onto live HEK293 cells expressing kinase/Nluc fusions (Table S1)
condition summary: MAP3K4, Nluc C; read-out: Probe EC50

molecule	EC50
CNC(=O)c1ccccc1Nc1nc(Nc2ccc(N3CCN(C(=O)CCOCCOCCOCCOCCNC(=O)CCc4ccc5n4[B-](F)(F)[N+]4=C(c6ccc[nH]6)C=CC4=C5)CC3)cc2)ncc1Cl [Energy Transfer Probe 5]	> 1000 nM

* * *

study target: full-length kinase/Nluc fusion proteins (Homo sapiens)
Sequence (Q8IYT8 1-1036): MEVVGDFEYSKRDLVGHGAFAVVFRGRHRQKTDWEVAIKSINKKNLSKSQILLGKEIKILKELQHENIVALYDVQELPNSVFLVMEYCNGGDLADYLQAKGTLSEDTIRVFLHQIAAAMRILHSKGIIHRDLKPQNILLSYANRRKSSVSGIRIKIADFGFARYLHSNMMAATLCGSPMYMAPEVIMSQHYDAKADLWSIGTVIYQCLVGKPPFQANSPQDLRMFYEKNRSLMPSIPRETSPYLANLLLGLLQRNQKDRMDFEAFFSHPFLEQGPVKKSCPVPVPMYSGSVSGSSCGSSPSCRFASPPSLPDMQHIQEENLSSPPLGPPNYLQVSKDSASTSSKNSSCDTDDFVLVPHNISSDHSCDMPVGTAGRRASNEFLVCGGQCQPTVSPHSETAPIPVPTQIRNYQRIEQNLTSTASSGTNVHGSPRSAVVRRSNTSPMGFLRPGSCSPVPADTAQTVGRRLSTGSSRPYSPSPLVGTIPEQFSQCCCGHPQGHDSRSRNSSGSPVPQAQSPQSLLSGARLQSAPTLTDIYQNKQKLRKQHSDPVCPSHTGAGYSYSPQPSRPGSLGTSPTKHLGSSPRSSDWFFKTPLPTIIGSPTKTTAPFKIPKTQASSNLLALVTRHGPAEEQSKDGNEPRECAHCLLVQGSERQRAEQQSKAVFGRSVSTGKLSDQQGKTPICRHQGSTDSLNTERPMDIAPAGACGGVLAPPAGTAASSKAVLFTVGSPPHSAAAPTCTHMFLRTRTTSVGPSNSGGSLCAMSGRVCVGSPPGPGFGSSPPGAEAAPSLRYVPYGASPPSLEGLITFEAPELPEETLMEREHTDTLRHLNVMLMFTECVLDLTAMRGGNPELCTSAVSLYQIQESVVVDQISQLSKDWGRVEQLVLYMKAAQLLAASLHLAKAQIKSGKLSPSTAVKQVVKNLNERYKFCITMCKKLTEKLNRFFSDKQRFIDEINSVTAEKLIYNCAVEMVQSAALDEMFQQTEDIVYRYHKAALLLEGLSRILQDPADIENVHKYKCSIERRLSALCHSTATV
test: Apparent affinity (EC50) of energy transfer probes by titration onto live HEK293 cells expressing kinase/Nluc fusions (Table S1)
condition summary: ULK2 (NP_001136082), Nluc orientation N; read-out: Probe EC50
pEC50: −log10 of the molar value.
measured endpoint: pEC50

compound	experimental result
CNC(=O)c1ccccc1Nc1nc(Nc2ccc(N3CCN(C(=O)CCOCCOCCOCCOCCNC(=O)CCc4ccc5n4[B-](F)(F)[N+]4=C(c6ccc[nH]6)C=CC4=C5)CC3)cc2)ncc1Cl [Energy Transfer Probe 5]	< 6.00

* * *

study target: full-length kinase/Nluc fusion proteins (Homo sapiens, UniProt P08069)
Sequence (P08069 31-1367): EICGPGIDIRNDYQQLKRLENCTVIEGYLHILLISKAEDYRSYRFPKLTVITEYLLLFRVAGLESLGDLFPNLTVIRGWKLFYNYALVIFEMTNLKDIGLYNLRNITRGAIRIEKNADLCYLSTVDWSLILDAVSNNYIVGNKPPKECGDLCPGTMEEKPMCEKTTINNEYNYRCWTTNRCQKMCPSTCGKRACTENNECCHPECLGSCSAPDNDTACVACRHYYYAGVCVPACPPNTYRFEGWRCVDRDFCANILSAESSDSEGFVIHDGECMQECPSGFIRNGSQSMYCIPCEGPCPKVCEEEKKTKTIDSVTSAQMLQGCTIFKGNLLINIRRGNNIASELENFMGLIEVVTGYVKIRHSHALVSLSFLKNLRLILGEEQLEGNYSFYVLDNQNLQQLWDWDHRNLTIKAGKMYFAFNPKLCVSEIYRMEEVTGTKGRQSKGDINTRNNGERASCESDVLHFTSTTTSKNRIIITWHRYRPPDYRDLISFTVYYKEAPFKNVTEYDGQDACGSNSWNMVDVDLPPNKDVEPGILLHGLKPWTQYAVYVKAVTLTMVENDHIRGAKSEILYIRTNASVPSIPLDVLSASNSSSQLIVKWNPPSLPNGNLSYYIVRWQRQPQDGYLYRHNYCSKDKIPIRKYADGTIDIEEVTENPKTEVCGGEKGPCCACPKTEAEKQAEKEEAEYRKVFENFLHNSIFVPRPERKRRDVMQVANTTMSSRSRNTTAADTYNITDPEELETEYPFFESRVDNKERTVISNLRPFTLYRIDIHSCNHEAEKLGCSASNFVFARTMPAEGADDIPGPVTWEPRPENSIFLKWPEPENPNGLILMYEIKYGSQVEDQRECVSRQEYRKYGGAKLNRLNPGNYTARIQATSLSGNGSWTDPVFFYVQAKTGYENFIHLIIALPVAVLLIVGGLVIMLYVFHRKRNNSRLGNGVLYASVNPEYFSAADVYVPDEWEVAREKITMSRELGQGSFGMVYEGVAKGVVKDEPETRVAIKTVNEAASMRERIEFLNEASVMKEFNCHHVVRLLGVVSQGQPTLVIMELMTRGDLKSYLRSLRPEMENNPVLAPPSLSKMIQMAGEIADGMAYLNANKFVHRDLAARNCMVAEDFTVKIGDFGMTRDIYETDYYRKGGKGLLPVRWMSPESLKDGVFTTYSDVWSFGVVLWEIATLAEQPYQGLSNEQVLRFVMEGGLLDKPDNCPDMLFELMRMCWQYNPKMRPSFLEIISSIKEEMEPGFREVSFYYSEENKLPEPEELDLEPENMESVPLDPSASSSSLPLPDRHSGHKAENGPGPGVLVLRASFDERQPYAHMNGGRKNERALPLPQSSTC
test: Apparent affinity (EC50) of energy transfer probes by titration onto live HEK293 cells expressing kinase/Nluc fusions (Table S1)
condition summary: IGF1R, Nluc C; read-out: Probe EC50
pEC50: −log10 of the molar value.

molecule	pEC50
CNC(=O)c1ccccc1Nc1nc(Nc2ccc(N3CCN(C(=O)CCOCCOCCOCCOCCNC(=O)CCc4ccc5n4[B-](F)(F)[N+]4=C(c6ccc[nH]6)C=CC4=C5)CC3)cc2)ncc1Cl [Energy Transfer Probe 5]	< 6.00
